- experiment: Cmax in Sprague-Dawley rat at 30 mg/kg, po administered for 24 hrs by HPLC analysis
- Assay type: ADME, organism-based
- Parameters: time 24 hrs, dose 30 mg/kg, route po
- measurement-context: in vivo
readout-name: Cmax (ng/mL)
Quick note: give the figure in ng/mL, leave out the unit.

# return recorded Cmax for entry COc1cc2c(NCc3c(C)cc(C)[nH]c3=O)nc(N3CCC(F)(F)CC3)nc2cc1OCCCN1CCCC1 3180

* * *

- experiment: AUC (0 to infinity) in Sprague-Dawley rat at 30 mg/kg, po administered for 24 hrs by HPLC analysis
- Format: ADME, organism-based
- Parameters: time 24 hrs, dose 30 mg/kg, route po
- measurement-context: in vivo
readout-name: AUC(0-inf) (ng·h/mL)
Quick note: give the figure in ng·h/mL, leave out the unit.

# return recorded AUC(0-inf) for entry COc1cc2c(NCc3c(C)cc(C)[nH]c3=O)nc(N3CCC(F)(F)CC3)nc2cc1OCCCN1CCCC1 11400

* * *

- experiment: AUC (0 to 24 hrs) in Sprague-Dawley rat at 30 mg/kg, po administered for 24 hrs by HPLC analysis
- Type: ADME, organism-based
- Set-up: time 24 hrs, dose 30 mg/kg, route po
- measurement-context: in vivo
readout-name: AUC(0-t) at 24 h (µg·h/mL)
Quick note: give the figure in µg·h/mL, leave out the unit.

# return recorded AUC(0-t) at 24 h for entry COc1cc2c(NCc3c(C)cc(C)[nH]c3=O)nc(N3CCC(F)(F)CC3)nc2cc1OCCCN1CCCC1 5.35

* * *

- experiment: Tmax in Sprague-Dawley rat at 10 mg/kg, iv administered for 12 hrs by HPLC analysis
- Format: ADME, organism-based
- measurement-context: in vivo
readout-name: Tmax

# return recorded Tmax for entry COc1cc2c(NCc3c(C)cc(C)[nH]c3=O)nc(N3CCC(F)(F)CC3)nc2cc1OCCCN1CCCC1 10.2 min

* * *

- System: SW982
- experiment: Cytotoxicity against human SW982 cells assessed as reduction in cell viability incubated for 72 hrs by MTT assay
- Assay type: functional
Each record's class is read off its CC50 using these ranges: one (below 60 µM), two (60 µM to below 90 µM), three (90 µM or more)

# count of solved cases: 3
COc1cc2c(NCc3c(C)cc(C)[nH]c3=O)nc(N(C)C)nc2cc1OCCCN1CCCC1    two
COc1cc2c(NCc3c(C)cc(C)[nH]c3=O)nc(N3CCC(F)(F)CC3)nc2cc1OCCCN1CCCC1    one
COc1cc2c(NCc3c(C)cc(C)[nH]c3=O)nc(N(C)CCN(C)C)nc2cc1OCCCN1CCCC1    two

Sort COc1cc2nc(N(C)CCN(C)C)nc(NCc3c(C)cc(C)[nH]c3=O)c2cc1OC into one of the categories. two

Sort COc1cc2c(NCc3c(C)cc(C)[nH]c3=O)nc(N3CCCCC3)nc2cc1OCCCN1CCCC1 into one of the categories. one

Sort COc1cc2nc(N3CCN(C)CC3)nc(NCc3c(C)cc(C)[nH]c3=O)c2cc1OC into one of the categories. three

Sort COc1cc2nc(N(C)CCCN(C)C)nc(NCc3c(C)cc(C)[nH]c3=O)c2cc1OC into one of the categories. three

Sort COc1cc2c(NCc3c(C)cc(C)[nH]c3=O)nc(N3CCCN(C)CC3)nc2cc1OCCCN1CCCC1 into one of the categories. one

Sort CCN(c1cc(-c2ccc(CN3CCOCC3)cc2)cc(C(=O)NCc2c(C)cc(C)[nH]c2=O)c1C)C1CCOCC1 [TAZEMETOSTAT] into one of the categories. three

Sort COc1cc2c(NC3CCN(C(C)C)CC3)nc(C3CCCCC3)nc2cc1OCCCN1CCCC1 into one of the categories. one

Sort COc1cc2c(NCc3c(C)cc(C)[nH]c3=O)nc(N3CCCCCC3)nc2cc1OCCCN1CCCC1 into one of the categories. one

Sort COc1cc2c(NCc3c(C)cc(C)[nH]c3=O)nc(N3CCN(C)CC3)nc2cc1OCCCN1CCCC1 into one of the categories. two

Sort COc1cc2nc(N3CCCN(C)CC3)nc(NCc3c(C)cc(C)[nH]c3=O)c2cc1OC into one of the categories. three

Sort CCN1CCN(c2nc(NCc3c(C)cc(C)[nH]c3=O)c3cc(OC)c(OCCCN4CCCC4)cc3n2)CC1 into one of the categories. one

Sort COc1cc2c(NCc3c(C)cc(C)[nH]c3=O)nc(N3CCOCC3)nc2cc1OCCCN1CCCC1 into one of the categories. three
